Test system: K562 CRISPRi cells
protocol_details: Constant region variant library pooled growth screen, K562
Format: cell-based, human
applied_conditions: sgRNA constant region variants; activity relative to the original, un-modified constant region cr995

molecule	Mean relative activity
cr676 (nucleic acid, listed as DNA, chemistry not fully specified) guide: GTTTAAGAGCTAAGCTGGAAACAGCATAGCAAGTTTAAATAAGGCTAGTCCGTTATCAACTTGGAAAAGTTGCACCGAGTCGGTGCT	0.8506
cr821 (nucleic acid, listed as DNA, chemistry not fully specified) guide: GTTTAAGAGCTAAGCTGGAAACAGCGTAGCAAGTTTAAATAAGGCTAGTCCGTTATCAACTTGAAAAAGTGGCACCGAGTCGGTGCT	1.038
